Test Summary: in vitro
Design: Viability of infected HeLa host cells, resazurin conversion, bulk resorufin fluorescence relative to DMSO
Measurement Context: human, hela cells; bulk resorufin, mean of 2
Reported Metric: viability at 28.5 h, 10 µM (%)
Give a bare numeral; the unit % is implied.

Some solved cases for reference:
Compound | Recorded Number
CCC1C(c2ccc(C)cc2)=CCC(C(=O)NCCCN(C)C)C1C (stereo not shown) | 100
O=C(Nc1cc(Cl)nc(Cl)c1)N(Cc1ccc2ccccc2c1)CC1CCNCC1 | 96.4
CC(=O)N1CCc2sccc2C1c1ccccc1NCc1ccoc1 (stereo not shown) | 85.9
COCCNc1nc2c(c(N3CCCCCC3)n1)CCNCC2 | 92.9
COc1ccc([C@H]2CN(Cc3ccccc3)[C@@H]3CCN(C(=O)Cc4ccsc4)C[C@H]23)cc1 | 93

So, CCCCCC(=O)Nc1ccc(S(=O)(=O)Nc2nnc(CC)s2)cc1 ? Its viability at 28.5 h, 10 µM was 91.2

viability at 28.5 h, 10 µM for COc1c(Br)cc2c(cc(C)n2-c2ccccc2)c1OCC(O)CNC(C)C (stereo not shown) is 91.3

response.value for O=C(Nc1cc(Cl)nc(Cl)c1)N(Cc1ccc(-c2ccccc2)cc1)CC1CCNCC1 (field: viability at 28.5 h, 10 µM) = 97.9

Documented viability at 28.5 h, 10 µM of Cc1ccc(CNC(=O)OCc2cccnc2C)o1 : 101
